Reference source for all entries: paper PMC4336329

- target_system: human ether-à-go-go-related gene (hERG) potassium channel (human, UniProt Q12809)
- Sequence (Q12809 whole entry, looked up): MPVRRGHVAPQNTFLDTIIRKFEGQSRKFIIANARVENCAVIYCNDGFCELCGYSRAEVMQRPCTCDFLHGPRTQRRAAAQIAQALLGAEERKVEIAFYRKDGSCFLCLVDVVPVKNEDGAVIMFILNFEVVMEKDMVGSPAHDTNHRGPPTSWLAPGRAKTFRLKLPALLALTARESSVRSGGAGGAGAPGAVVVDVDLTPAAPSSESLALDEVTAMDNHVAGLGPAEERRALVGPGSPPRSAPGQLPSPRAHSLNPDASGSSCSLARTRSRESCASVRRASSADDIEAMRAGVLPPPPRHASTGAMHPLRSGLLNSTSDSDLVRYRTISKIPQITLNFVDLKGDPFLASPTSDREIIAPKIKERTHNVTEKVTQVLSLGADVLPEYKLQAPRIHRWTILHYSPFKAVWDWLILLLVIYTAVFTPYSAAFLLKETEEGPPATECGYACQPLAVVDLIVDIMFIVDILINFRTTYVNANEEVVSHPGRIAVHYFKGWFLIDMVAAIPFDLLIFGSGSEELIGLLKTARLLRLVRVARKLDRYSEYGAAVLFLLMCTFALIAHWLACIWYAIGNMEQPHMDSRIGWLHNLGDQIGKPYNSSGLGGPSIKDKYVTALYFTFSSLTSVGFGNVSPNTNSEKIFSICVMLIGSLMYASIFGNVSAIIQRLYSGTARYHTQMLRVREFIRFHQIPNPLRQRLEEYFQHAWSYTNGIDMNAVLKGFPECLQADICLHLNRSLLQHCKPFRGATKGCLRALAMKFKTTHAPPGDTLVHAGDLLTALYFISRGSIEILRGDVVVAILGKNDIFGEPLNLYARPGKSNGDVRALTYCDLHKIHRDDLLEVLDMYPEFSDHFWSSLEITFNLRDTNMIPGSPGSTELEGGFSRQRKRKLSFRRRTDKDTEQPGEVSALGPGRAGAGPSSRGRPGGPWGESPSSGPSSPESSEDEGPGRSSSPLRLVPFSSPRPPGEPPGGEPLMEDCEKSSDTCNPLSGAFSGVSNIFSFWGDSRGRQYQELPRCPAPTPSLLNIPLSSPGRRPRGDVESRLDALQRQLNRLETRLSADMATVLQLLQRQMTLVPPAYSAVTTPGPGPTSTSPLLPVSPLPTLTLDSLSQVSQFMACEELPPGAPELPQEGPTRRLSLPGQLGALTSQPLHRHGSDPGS
- method_summary: primary screen, population patch clamp on CHO cells stably expressing hERG; higher = less effect of the substance
In all, about 310,000 compounds went through this assay and about 14,000 (4.5%) showed an effect of 50% or more. Effects have a minus sign here. The full list was thinned out, with strong results kept by preference.
hERG current change (%, negative = inhibition) at 10uM values by entry
Only the number, expressed in %, is required.

Worked examples, 5 compounds total:
Q: Tell me the measured hERG current change (%, negative = inhibition) at 10uM of CCCCCC#CCN1CCN(C23CC4CC(CC(C4)C2)C3)CC1 , please.
Result: -58.6

Q: Fill blank: measured hERG current change (%, negative = inhibition) at 10uM of the compound CCc1cc(=O)oc2cc(OC(C)C(=O)NCCCn3ccnc3)ccc12 (stereo not drawn) is ____.
Result: 9.41

Q: Please report the recorded hERG current change (%, negative = inhibition) at 10uM for Cc1ccc(CNC(=O)C2CCN(c3nnc(N4CCCC4=O)s3)CC2)cc1 .
Result: 14.4

Q: Could you tell me which hERG current change (%, negative = inhibition) at 10uM is on file for CCCCSCCCNC(=O)c1ccc(CS(=O)(=O)c2ccc(OC)cc2)o1 ?
Result: -59.6

Q: Name the recorded hERG current change (%, negative = inhibition) at 10uM for COc1ccc(S(=O)(=O)Cc2ccc(C(=O)NCCc3ccc(S(N)(=O)=O)cc3)o2)cc1 .
Result: 10.1

Shifting focus to the compound that follows.
Q: # query: hERG current change (%, negative = inhibition) at 10uM of entry CCCC#CCN1CCN(C23CC4CC(CC(C4)C2)C3)CC1
Result: -16.1

* * *

- target_system: human ether-à-go-go-related gene (hERG) potassium channel (human)
- method_summary: primary screen, population patch clamp on CHO cells stably expressing hERG; higher = less effect of the substance
Out of some 310,000 compounds screened, about 14,000 (4.5%) showed an effect of 50% or more. The effect is printed as a negative number. Shown is part of a subset that was picked to be rich in strong results.
measurement_kind: hERG current change (%, negative = inhibition) at 10uM (%)
Quick note: give the figure in %, leave out the unit.

// solved cases for hERG current change (%, negative = inhibition) at 10uM follow
Q: Look up hERG current change (%, negative = inhibition) at 10uM for this molecule: COc1cccc(CN2CCN(C(=O)Nc3ccc([N+](=O)[O-])cc3)CC2)c1
Result: -57.2

Q: I'd like to know its hERG current change (%, negative = inhibition) at 10uM. The molecule in question is O=C(Nc1ccc(N2CCOCC2)cc1)NC1CCCCC1
Result: 6.25

Q: Quick one: hERG current change (%, negative = inhibition) at 10uM for Cc1ccc(C(=O)NC(=S)NCCCN2CCOCC2)cc1 ?
Result: -7.43

Q: I am curious: what hERG current change (%, negative = inhibition) at 10uM value has been reported for O=[N+]([O-])c1ccc(N2CCN(C(=S)Nc3ccc(F)cc3)CC2)cc1 ?
Result: -44.4

Q: Data request, read-out hERG current change (%, negative = inhibition) at 10uM, for Brc1ccc(-c2nnc3c4ccccc4nc(N4CCOCC4)n23)cc1
Result: -8.42

Q: Given O=C(c1ccccc1)c1n[nH]c(-c2ccccc2)cc1=O , state its recorded hERG current change (%, negative = inhibition) at 10uM.
Result: 30.9

Please examine the following record next.
Q: Suppose we examine the molecule CC(NC(=S)Nc1ccc(Cl)cc1)C(c1ccccc1)N1CCOCC1 (stereo not drawn) ; what hERG current change (%, negative = inhibition) at 10uM value has been reported?
Result: -13

* * *

- target_system: human ether-à-go-go-related gene (hERG) potassium channel (human, UniProt Q12809);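 note: peak tail current of the secondary pulse compared with the same well before compound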
- method_summary: primary screen, population patch clamp on CHO cells stably expressing hERG; higher = less effect of the substance
In all, about 310,000 compounds went through this assay and about 14,000 (4.5%) showed an effect of 50% or more. The effect is printed as a negative number. The full list was thinned out, with strong results kept by preference.
measurement_kind: hERG current change (%, negative = inhibition) at 10uM (%)
Kindly provide the numeric value in % only, without the unit symbol.

Recorded hERG current change (%, negative = inhibition) at 10uM, per entry:
Q: Suppose we examine the compound CC(=O)c1c(C(C)=O)c(C)n(C2CCCCC2)c1C ; what hERG current change (%, negative = inhibition) at 10uM value has been reported?
Result: 2.97

Q: Quick one: hERG current change (%, negative = inhibition) at 10uM for Cc1cc(C)c(OCCCCN(C)C)c(Br)c1.O=C(O)C(=O)O ?
Result: -41.5

Others:
Q: Form field: reported hERG current change (%, negative = inhibition) at 10uM of NC(=O)NC(=O)C(c1ccccc1)N1CCN(S(=O)(=O)c2ccc(Br)s2)CC1 (centres unmarked)
Result: -52.2

Q: I have this compound here, O=C1C2C3C=CC(C3)C2C(=O)N1c1ccc(-c2nc3ccccc3o2)cc1 (centres unmarked) , and I need its recorded hERG current change (%, negative = inhibition) at 10uM.
Result: 15.6

Q: Tell me the measured hERG current change (%, negative = inhibition) at 10uM of O=C(CSc1nc(=O)n2ccccc2n1)N1CCCc2ccccc21 , please.
Result: -16.8

Q: What value of hERG current change (%, negative = inhibition) at 10uM has been reported for the following compound? CCOc1ccc(N2C(=O)/C(=C/c3cccs3)N(CC(=O)OC)C2=S)cc1
Result: -28

Q: Give its hERG current change (%, negative = inhibition) at 10uM value. Item: NC(=O)NC(=O)C(c1ccccc1)N1CCN(S(=O)(=O)Cc2ccccc2)CC1 (centres unmarked)
Result: -18.9

Q: Can you look up the measured hERG current change (%, negative = inhibition) at 10uM of Cc1ccc(C(=O)Nc2ccc(S(=O)(=O)N3CCOCC3)cc2)cc1Br for me?
Result: 3.46

* * *

Reported hERG current change (%, negative = inhibition) at 10uM values are given for each entry in this list.
- target_system: human ether-à-go-go-related gene (hERG) potassium channel (human, UniProt Q12809);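 note: peak tail current of the secondary pulse compared with the same well before compound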
- method_summary: primary screen, population patch clamp on CHO cells stably expressing hERG; higher = less effect of the substance
The whole screen tested about 310,000 compounds, of which about 14,000 (4.5%) showed an effect of 50% or more. Effects have a minus sign here. The sample as a whole holds a higher share of strong results than the screen did.
Write it as a number; the unit % goes unstated.

Q: Endpoint output: hERG current change (%, negative = inhibition) at 10uM of CCOC(=O)c1ccc(NC(=O)c2nc[nH]c2C(=O)N2CCN(c3ccccc3)CC2)cc1 . Value?
Result: 3.29

Q: Report hERG current change (%, negative = inhibition) at 10uM for O=C1CC2OCC=C3CN4CCC56c7cc([N+](=O)[O-])ccc7N1C5C2C3CC46 (stereo not drawn) please.
Result: -22.4

We next turn to a different compound, shown below.
Q: Returns the measured hERG current change (%, negative = inhibition) at 10uM for the input compound. Input: COC(=O)c1cc(S(=O)(=O)NCCc2ccc(C)cc2)c[nH]1
Result: -9.92

* * *

- target_system: human ether-à-go-go-related gene (hERG) potassium channel (human, UniProt Q12809);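 note: peak tail current of the secondary pulse compared with the same well before compound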
- method_summary: primary screen, population patch clamp on CHO cells stably expressing hERG; higher = less effect of the substance
Among all 310,000 compounds or so, about 14,000 (4.5%) showed an effect of 50% or more. Effects have a minus sign here. Only a selection was taken, and strong results are over-represented in it overall.
Record Yes whenever hERG current change (%, negative = inhibition) at 10uM is at -30% or higher; record No when lower.

Example results:
Q: Given Cc1ccc2nc(N(CCCN(C)C)C(=O)c3ccc(S(=O)(=O)N4CCOCC4)cc3)sc2c1.Cl , state whether its hERG current change (%, negative = inhibition) at 10uM is at least -30%.
Result: No

Q: In plain terms: is recorded hERG current change (%, negative = inhibition) at 10uM at least -30% for CCOC(=O)C1CCCN(c2nc3ccccc3nc2C(C#N)C(=O)OCC)C1 (stereo not drawn) ?
Result: Yes

Q: Is reported hERG current change (%, negative = inhibition) at 10uM greater than or equal to -30% here: Cc1[nH]c(-c2ccc(F)cc2)cc1C(=O)N1CCN(c2cccc(Cl)c2)CC1
Result: Yes

Now examine the next entry.
Q: Please check the record O=C(Cn1ncc2c([nH]c3ccccc32)c1=O)NCC1CCN(Cc2ccc(F)cc2)CC1 and state if its hERG current change (%, negative = inhibition) at 10uM is at or above -30%.
Result: No

* * *

Listed next: entries and their corresponding hERG current change (%, negative = inhibition) at 10uM.
- target_system: human ether-à-go-go-related gene (hERG) potassium channel (human, UniProt Q12809);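 note: peak tail current of the secondary pulse compared with the same well before compound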
- method_summary: primary screen, population patch clamp on CHO cells stably expressing hERG; higher = less effect of the substance
The whole screen tested about 310,000 compounds, of which about 14,000 (4.5%) showed an effect of 50% or more. The effect is printed as a negative number. For the sample, strong results were picked, then their nearest neighbours and some compounds at random.
State just the number; it will be interpreted in %.

Below, 5 compounds whose answers are already recorded.
Q: Give its hERG current change (%, negative = inhibition) at 10uM value. Item: CC1(C)NC(=O)N(CCCCOc2cccc(C(F)(F)F)c2)C1=O
Result: -6.92

Q: So what does the record say about hERG current change (%, negative = inhibition) at 10uM for COC(=O)CCCNC(=O)CC1C(=O)NCCN1Cc1ccoc1 (centres unmarked) ?
Result: 22.1

Q: Could you share which hERG current change (%, negative = inhibition) at 10uM value was measured for O=C(CC1C(=O)NCCN1CC1CCCCC1)NCc1cc(F)ccc1F (centres unmarked) ?
Result: 1.77

Q: Quick one: hERG current change (%, negative = inhibition) at 10uM of O=C(CC1C(=O)NCCN1CC1CCCCC1)NCCc1ccc(F)cc1 (centres unmarked) ?
Result: -51.6

Q: Can you share its hERG current change (%, negative = inhibition) at 10uM? I mean this compound: COc1ccccc1OCCNC(=O)c1ccc2c(c1)CCC2
Result: -5.96

Others:
Q: Request the reported hERG current change (%, negative = inhibition) at 10uM associated with Cc1nc(CCNC(=O)CC2C(=O)NCCN2Cc2ccoc2)nc2c1CCCC2 (centres unmarked)
Result: -36.7

Q: Which hERG current change (%, negative = inhibition) at 10uM is listed for O=C(CC1C(=O)NCCN1CC1CCCCC1)NCc1ccc(F)cc1 (centres unmarked) ?
Result: -20.3

Q: Returns the measured hERG current change (%, negative = inhibition) at 10uM for the input compound. Input: O=C(NCc1ccco1)C1CCC(N2C(=O)c3ccccc3C2=O)CC1 (centres unmarked)
Result: 1.59
